Below, each of the compounds is paired with its reported melting point value.
readout.label: melting point

{"compound": "CC(C)(C)OC(=O)N1CCCN(c2ccc(-c3ccc(OC[C@H]4Cn5cc([N+](=O)[O-])nc5O4)cc3)cc2)CC1", "experimental.result": "235.5 to 237.5 °C"}
{"compound": "C[C@]1(COc2ccc(N3CCN(Cc4csc(-c5ccc(C(F)(F)F)cc5)n4)CC3)cc2)Cn2cc([N+](=O)[O-])nc2O1", "experimental.result": "210 to 212.1 °C"}
{"compound": "CN(Cc1cc2cc(Cl)ccc2o1)C1CCN(c2ccc(OC[C@@]3(C)Cn4cc([N+](=O)[O-])nc4O3)cc2)CC1", "experimental.result": "207.4 to 210 °C"}
{"compound": "C[C@]1(COc2ccc(N3CCC(N4CCN(c5ccc(Cl)cc5)CC4)CC3)cc2)Cn2cc([N+](=O)[O-])nc2O1", "experimental.result": "247 to 249 °C"}
{"compound": "CCCc1ccc(NC2CCN(c3ccc(OC[C@@]4(C)Cn5cc([N+](=O)[O-])nc5O4)cc3)CC2)cc1", "experimental.result": "222 to 223 °C"}
{"compound": "O=[N+]([O-])c1cn2c(n1)O[C@@H](COc1ccc(N3CCC(CCc4ccc(OC(F)(F)F)cc4)CC3)cc1)C2", "experimental.result": "208.9 to 211.7 °C"}
{"compound": "CC1(COc2ccc3nc(N4CCN(Cc5ccc(OC(F)(F)F)cc5)CC4)sc3c2)Cn2cc([N+](=O)[O-])nc2O1 (stereo not drawn)", "experimental.result": "172.6 to 174.6 °C"}
{"compound": "CN(CC=Cc1ccc(OC(F)(F)F)cc1)C1CCN(c2ccc(OC[C@@]3(C)Cn4cc([N+](=O)[O-])nc4O3)cc2)CC1", "experimental.result": "213 to 214.9 °C"}
{"compound": "C[C@]1(COc2ccc(N3CCC(CCc4ccc(OC(F)(F)F)cc4)CC3)cc2)Cn2cc([N+](=O)[O-])nc2O1", "experimental.result": "239.4 to 241.3 °C"}
{"compound": "C[C@]1(COc2ccc(N3CCC(OCC=Cc4ccc(OC(F)(F)F)cc4)CC3)cc2)Cn2cc([N+](=O)[O-])nc2O1", "experimental.result": "213.7 to 217.4 °C"}
{"compound": "C[C@]1(COc2ccc(N3CCC(Cc4ccc(Cl)cc4)CC3)cc2)Cn2cc([N+](=O)[O-])nc2O1", "experimental.result": "207.1 to 211.2 °C"}
{"compound": "O=[N+]([O-])c1cn2c(n1)O[C@@H](COc1ccc(N3CCC(OCc4ccc(OC(F)(F)F)cc4)CC3)cc1)C2", "experimental.result": "188.3 to 189.4 °C"}
{"compound": "C[C@]1(COc2ccc(N3CCN(CCOc4ccc(OC(F)(F)F)cc4)CC3)cc2)Cn2cc([N+](=O)[O-])nc2O1", "experimental.result": "194.8 to 195.6 °C"}
{"compound": "CC(C)(C)OC(=O)N1CCCN(c2ccc(-c3ccc(OC[C@@]4(C)Cn5cc([N+](=O)[O-])nc5O4)cc3)cc2)CC1", "experimental.result": "213.8 to 215.7 °C"}
{"compound": "O=[N+]([O-])c1cn2c(n1)O[C@@H](COc1ccc(N3CCC(COc4ccc(C(F)(F)F)cc4)CC3)cc1)C2", "experimental.result": "175 to 180 °C"}

====

Below, each of the compounds is paired with its reported melting point value.

{"compound.smiles": "C[C@]1(COc2ccc(-c3ccc(N4CCN(Cc5ccc(C(F)(F)F)cc5)CC4)cc3)cc2)Cn2cc([N+](=O)[O-])nc2O1", "melting point": "247.7 to 248.4 °C (dec.)"}
{"compound.smiles": "O=[N+]([O-])c1cn2c(n1)O[C@@H](COc1ccc(N3CCC(Cc4ccc(OC(F)(F)F)cc4)CC3)cc1)C2", "melting point": "160.5 to 164 °C"}
{"compound.smiles": "C[C@]1(COc2ccc(N3CCC(Nc4ccc(Oc5ccc(OC(F)(F)F)cc5)cc4)CC3)cc2)Cn2cc([N+](=O)[O-])nc2O1", "melting point": "198.6 to 201.1 °C (dec.)"}

====

{"compound": "C[C@]1(COc2ccc(-c3nc(-c4ccc(Cl)cc4)co3)cc2)Cn2cc([N+](=O)[O-])nc2O1", "melting point": "248.8 to 251.5 °C"}
{"compound": "O=[N+]([O-])c1cn2c(n1)OC(COc1ccc(N3CCC(COc4ccc(Cl)cc4)CC3)cc1)C2 (stereo not shown)", "melting point": "191.2 to 192.5 °C"}
{"compound": "CCCc1ccc(N(C)C2CCN(c3ccc(OC[C@@]4(C)Cn5cc([N+](=O)[O-])nc5O4)cc3)CC2)cc1", "melting point": "198 to 199 °C"}
{"compound": "C[C@]1(COc2ccc(N3CCC(CCOCc4ccc(OC(F)(F)F)cc4)CC3)cc2)Cn2cc([N+](=O)[O-])nc2O1", "melting point": "204.8 to 206.7 °C"}

====

Below, each of the compounds is paired with its reported melting point value.

{"compound": "C[C@]1(COc2ccc(CN3CCC(Cc4ccc(OC(F)(F)F)cc4)CC3)cc2)Cn2cc([N+](=O)[O-])nc2O1", "melting point": "172.5 to 174.1 °C"}
{"compound": "C[C@]1(COc2ccc(N3CCC(COc4ccc(CCl)cc4)CC3)cc2)Cn2cc([N+](=O)[O-])nc2O1", "melting point": "140.4 to 141.7 °C"}
{"compound": "C[C@]1(COc2ccc(N3CCC(COc4ccc(C(F)(F)F)cc4)CC3)cc2)Cn2cc([N+](=O)[O-])nc2O1", "melting point": "223.2 to 225.2 °C (dec.)"}
{"compound": "CC1(COc2ccc(N3CCC(Cc4ccc(Cl)c(Cl)c4)CC3)cc2)Cn2cc([N+](=O)[O-])nc2O1 (stereo not drawn)", "melting point": "191.4 to 192.1 °C"}
{"compound": "C[C@]1(COc2ccc(N3CCN(Cc4ccc(N5CCC(Oc6ccc(OC(F)(F)F)cc6)CC5)cc4)CC3)cc2)Cn2cc([N+](=O)[O-])nc2O1", "melting point": "198.2 to 201.4 °C"}
{"compound": "CN(Cc1ccc(N(C)CC=Cc2ccc(C(F)(F)F)cc2)cc1)C[C@@]1(C)Cn2cc([N+](=O)[O-])nc2O1", "melting point": "153.5 to 154.5 °C"}
{"compound": "C[C@]1(COc2ccc(N3CCN(CC=Cc4ccc(Cl)c(Cl)c4)CC3)cc2)Cn2cc([N+](=O)[O-])nc2O1", "melting point": "204.7 to 206.4 °C"}
{"compound": "C[C@]1(COc2ccc(N3CCC(Nc4cc(Cl)cc(Cl)c4)CC3)cc2)Cn2cc([N+](=O)[O-])nc2O1", "melting point": "122 to 124 °C"}
{"compound": "CC1(COc2ccc(N3CCC(COCc4ccc(OC(F)(F)F)cc4)CC3)cc2)Cn2cc([N+](=O)[O-])nc2O1 (stereo not drawn)", "melting point": "153.1 to 153.7 °C"}
{"compound": "CC1(COc2ccc(N3CCC(COc4ccc(Cl)cc4)CC3)cc2)Cn2cc([N+](=O)[O-])nc2O1 (stereo not drawn)", "melting point": "190 to 190.4 °C"}
{"compound": "C[C@]1(COc2ccc(C3CCN(CC=Cc4ccc(C(F)(F)F)cc4)CC3)cc2)Cn2cc([N+](=O)[O-])nc2O1", "melting point": "185.9 to 187.1 °C"}
{"compound": "C[C@]1(COc2ccc(-c3ccc(N4CCN(Cc5ccc(Cl)c(Cl)c5)CC4)cc3)cc2)Cn2cc([N+](=O)[O-])nc2O1", "melting point": "222.6 to 225.1 °C (dec.)"}
{"compound": "C[C@]1(COc2ccc(C3CCN(Cc4csc(-c5ccc(C(F)(F)F)cc5)n4)CC3)cc2)Cn2cc([N+](=O)[O-])nc2O1", "melting point": "194.6 to 196.4 °C"}
{"compound": "C[C@]1(COc2ccc(N3CCC(Nc4ccc(Cl)c(Cl)c4)CC3)cc2)Cn2cc([N+](=O)[O-])nc2O1", "melting point": "146 to 147.4 °C"}
{"compound": "O=[N+]([O-])c1cn2c(n1)O[C@@H](COc1ccc(N3CCC(COCc4ccc(OC(F)(F)F)cc4)CC3)cc1)C2", "melting point": "140.4 to 141.7 °C"}

====

Below, each of the molecules is paired with its reported melting point value.

{"molecule": "CN(CCCOc1ccc(OC(F)(F)F)cc1)C1CCN(c2ccc(OC[C@@]3(C)Cn4cc([N+](=O)[O-])nc4O3)cc2)CC1", "melting point": "167.4 to 170.2 °C"}
{"molecule": "C[C@]1(COc2ccc3nc(N4CCN(Cc5ccc(OC(F)(F)F)cc5)CC4)sc3c2)Cn2cc([N+](=O)[O-])nc2O1 [Example 1]", "melting point": "205.6 to 207.4 °C"}
{"molecule": "C[C@]1(COc2ccc3nc(N4CCC(=Cc5ccc(OC(F)(F)F)cc5)CC4)ccc3c2)Cn2cc([N+](=O)[O-])nc2O1", "melting point": "193.9 to 195.9 °C"}
{"molecule": "CN(Cc1ccc(C(F)(F)F)cc1F)C1CCN(c2ccc(OC[C@@]3(C)Cn4cc([N+](=O)[O-])nc4O3)cc2)CC1", "melting point": "197.5 to 199.2 °C"}
{"molecule": "C[C@]1(COc2ccc(N3CCC(CCOCc4ccc(Cl)cc4)CC3)cc2)Cn2cc([N+](=O)[O-])nc2O1", "melting point": "197.6 to 198.2 °C"}
{"molecule": "C[C@]1(COc2ccc(N3CCC(COc4ccc(-c5ccccc5)cc4)CC3)cc2)Cn2cc([N+](=O)[O-])nc2O1", "melting point": "245 °C (dec.)"}
{"molecule": "CN(c1ccc(Cl)cc1)C1CCN(C2CCN(c3ccc(OC[C@@]4(C)Cn5cc([N+](=O)[O-])nc5O4)cc3)CC2)CC1", "melting point": "230.8 to 232 °C"}

Value source: patent US8163753B2
